Values compiled from paper PMC12136788.

# Target Desc: MSI1 full-length (mouse, UniProt Q61474 1-362)
# Sequence (Q61474 whole entry): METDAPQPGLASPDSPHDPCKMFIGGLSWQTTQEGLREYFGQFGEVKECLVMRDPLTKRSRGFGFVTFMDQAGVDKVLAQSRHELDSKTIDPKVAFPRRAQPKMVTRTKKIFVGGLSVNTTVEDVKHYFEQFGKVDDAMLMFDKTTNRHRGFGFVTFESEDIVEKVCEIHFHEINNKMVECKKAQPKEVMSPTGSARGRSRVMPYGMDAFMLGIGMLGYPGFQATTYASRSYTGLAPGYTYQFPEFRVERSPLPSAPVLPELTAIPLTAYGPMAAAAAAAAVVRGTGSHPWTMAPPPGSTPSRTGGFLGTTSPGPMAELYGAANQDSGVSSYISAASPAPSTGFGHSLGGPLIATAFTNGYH
# Assay Info: nsRBNS (natural sequence RNA bind-n-seq); RBNS binding buffer (assumed for nsRBNS): 25 mM Tris pH 7.5, 150 mM KCl, 3 mM MgCl2, 0.01% Triton X-100, 500 ug/ml BSA, 20 U/ml SUPERase-In, 4 C; UNK is unkempt and MSI1 is Musashi-1; names of the RNAs are library labels; protein concentration not given here; high values mean tight binding
Whole data set: some 5,800 sequences, median “enrichment r” near 0.54, cut for the highest 2% near 16. For the sample, the highest values were picked, then their nearest neighbours and some sequences at random.
Assay Metric: binding signal
Numeric answer plus unit only.

INSERT INTO measurements (binder, assay_metric, experimental_value) VALUES
  ('ENSG00000186472:stop:overlap|stop_codon|ENSG00000186472|stop_codon|NA|stop_codon (ssRNA) RNA: GGGAGUUCUACAGUCCGACGAUCUUUCUUGUAAAUGGAAAUUUUAUCAUGUGUAUAGAUUCUGUAGCAUGCUUUUCUUUAUUUAGUUUUACUUUAUUCCUUUAUUGUUCUGUUUCUUGAUUGUUUGCUUGAUUUGUUUGGUGUCAACAGAGGAUUGAGCAUCA', 'binding signal', '0.35 enrichment R');

Let us move to another entry and its binding signal.
q: Give the reported value of binding signal for this record: chr18:2804133:2804242:+|3pUTR|ENSG00000101596|unk|FALSE|unique (ssRNA) RNA: GGGAGUUCUACAGUCCGACGAUCGGUUAAAGAGAAAUGACUUUUUAGGAACUAGACUUGAACGUAUAAUUAAUAUGUGGAACUAGUUUGCUUUUAUAAUUCAUUGUAUCAAGAAGGAGUCAUGUUUUAAAUCCAAGGCAUUGACAACAGAGGAUUGAGCAUCA
a: 1.24 enrichment R
